- Test system: Tov-21-G
- ASSAY TEXT: Primary qHTS to identify gynecologic anti-cancer compounds using libraries of approved drugs and bioactive compounds (AID 1345084); further: nearly all actives have a fitted effect of over 55% in size
- CONDITION SET: Gynecologic cancer cell panel viability, ATPlite luminescence, 48 h; series mostly up to 57.5 µM
Records with an inconclusive call do not appear. The source made the active and inactive calls. The call rests on the fitted dose curve; in most records, active means well fitted cell-killing curve with a large enough effect; inconclusive means small, poorly fitted or top-dose-only effect, or effect the other way; inactive means flat fitted curve, though single readings scatter.
API: response.call in True (active), False (inactive)

Answered examples (3):
- COMPOUND: "O=S(=O)(O)C(F)(F)C(F)(F)C(F)(F)C(F)(F)C(F)(F)C(F)(F)C(F)(F)C(F)(F)F"
  ASSIGNED CATEGORY: "False"
- COMPOUND: "O=C(N[C@@H](COc1ccc2[nH]c(=O)[nH]c2c1)c1ccccc1)c1cccn(Cc2ccc(F)c(F)c2)c1=O"
  ASSIGNED CATEGORY: "False"
- COMPOUND: "C1CCC(NC2CCCCC2)CC1"
  ASSIGNED CATEGORY: "False"

Query :: Recorded call for O=[N+]([O-])c1ccc([As](=O)(O)O)cc1 ?
Result :: False

Query :: Give the logged outcome of this assay for the following compound: O=C(O)COc1ccccc1
Result :: False
